Experiment: chemical genetic growth profiling, strain panel (AID 1159580);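 also: tested at 20 µM; growth read once vehicle control cultures reached saturation at 30 °C; 1 = growth at the plate median or of vehicle wells; lower values mean less growth of the strain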
Conditions: S. cerevisiae deletion strains, growth OD, locus YML120C, strain ndi1, hits give low values
In all, about 5,500 compounds went through this assay and about 2,000 (36%) were called active. Not shown: some 18% with an inconclusive outcome. This is one part of the list.
Recorded normalized growth for the following molecules

{"columns": ["Molecule", "normalized growth"],
 "data": [
  ["CC1=C2CCC3C(CC[C@]4(C)C(=O)CCC34)[C@@]2(C)CCC1=O (stereo partly drawn)", 0.955],
  ["Nc1ncnc2c1ncn2[C@@H]1O[C@H](CO)[C@@H](O)[C@@H]1O", 1.01],
  ["O=C(O)c1cccc(O)c1O", 1.01]
]}
